Measured mAb1 binding response (RU) accompanies every entry in the list below.
Target: T1, hANGPTL3(17-460)-His (human, UniProt Q9Y5C1 17-460)
T1 construct: Bought protein (R&D Systems); also called full-length mature human ANGPTL3 with a C-terminal decahistidine tag; Human ANGPTL3 (17-460)-His
T1 sequence: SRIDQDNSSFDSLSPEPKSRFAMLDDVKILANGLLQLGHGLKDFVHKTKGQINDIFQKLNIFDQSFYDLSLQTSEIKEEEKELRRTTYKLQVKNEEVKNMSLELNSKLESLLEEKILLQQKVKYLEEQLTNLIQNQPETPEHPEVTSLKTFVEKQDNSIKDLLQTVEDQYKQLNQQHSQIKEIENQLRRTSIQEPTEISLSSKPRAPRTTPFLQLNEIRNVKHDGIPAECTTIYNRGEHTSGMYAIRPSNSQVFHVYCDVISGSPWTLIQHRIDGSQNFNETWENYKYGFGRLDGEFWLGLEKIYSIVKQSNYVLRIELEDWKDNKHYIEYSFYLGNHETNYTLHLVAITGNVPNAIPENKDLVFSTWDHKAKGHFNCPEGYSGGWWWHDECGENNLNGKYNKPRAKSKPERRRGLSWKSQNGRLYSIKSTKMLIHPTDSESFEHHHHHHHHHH
Experiment: Biacore cross-competition, 25C; first antibody at 25 µg/ml on captured antigen

{"columns": ["binder", "mAb1 binding response (RU)"],
 "data": [
  ["H4H1250P (antibody, IgG4, V domains shown) VH: QVQLVESGGGVVQPGRSLRLSCAASGFTFSSYGMHWVRQAPGKGLEWVAVISNDGSNKYYVDSVKGRFTMGRDNSKNTLYLQMNSLRVEDTAVYYCAKGAGTLYYYYYGMDVWGQGTTVTVSS VL: DIQMTQSPSTLSASVGNRVTITCRASQSISSWLAWYQQKPGKAPKFLIYKASSLESGVPSRFSGSGSGTEFTLTITSLQPDDFATYYCQQYNIYSWTFGQGTKVEIK", 210],
  ["H1M896N (antibody, V domains shown) VH: EVQLLESGGGLVQPGGSLRLSCAASGFTFSTYAMSWVRQAPGKGLEGVSGISGTGYRTYYADSVKGRFTISRDNSKNSLYLQMNSLRAEDTAVYYCAKDRGLLWFGELTYWGQGTLVTVSS VL: DIQMTQSPSTLSASVGDRVTITCRASQSINNWLAWYQQKPGKAPNLLIYKASSLESGVPSRFSGSGSGTEFTLTISSLQPDDFATYYCQQYNDYWTFGQGTKVEIK", 171],
  ["H4H1292P (antibody, IgG4, V domains shown) VH: QVQLVESGGGLVKPGGSLRLSCAASGFTFSDYYMSWIRQAPGKGLEWVSYISSSGSTIYYADSVKGRFTISRDNAKNSLYLQMNSLRAEDTAVYYCARDSSQLGFDYWGQGTLVTVSS VL: DIQMTQSPSSLSASVGDRVTITCRASQSIISFLNWYQQKPGKAPKLLIYTASSLQSGVPSRFSGSGSGTDFTLTISSLQPEDFATYYCQQTYSNPLTFGGGTKVEIKR", 48]
]}
